Tested on: 996289-038-R-J1-PDC spheroid viability;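 note: spheroids exposed to compounds for seven days before viability read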
Assay: Anticancer human tumor 996289-038-R-J1-PDC patient-derived colon adenocarcinoma cell line growth inhibition [PI3K]
Conditions: curve of first compound; second compound 0.0316 µM; spheroids with HUVEC and MSC
pIC50: −log10 of the molar value.

| molecule | study.system | pIC50 |
| --- | --- | --- |
| CC(=O)c1c(C)c2cnc(Nc3ccc(N4CCNCC4)cn3)nc2n(C2CCCC2)c1=O + CC(Nc1ncnc2nc[nH]c12)c1cc2cccc(Cl)c2c(=O)n1-c1ccccc1 | 996289-038-R-J1-PDC spheroid viability | < 7.00 |
| C[C@@H](NC(=O)c1ncnc(N)c1Cl)c1ncc(C(=O)Nc2cc(C(F)(F)F)c(Cl)cn2)s1 + CC(Nc1ncnc2nc[nH]c12)c1cc2cccc(Cl)c2c(=O)n1-c1ccccc1 | 996289-038-R-J1-PDC spheroid viability | < 5.00 |
| Cn1nccc1Nc1nccc(-c2ccn(C(CO)c3ccc(Cl)c(F)c3)c(=O)c2)n1 (stereo unspecified) + Cc1nc(NC(=O)N2CCCC2C(N)=O)sc1-c1ccnc(C(C)(C)C(F)(F)F)c1 | 996289-038-R-J1-PDC spheroid viability | < 5.00 |
| C=CC(=O)N1CCN(c2nc(=O)n(-c3c(C)ccnc3C(C)C)c3nc(-c4c(O)cccc4F)c(F)cc23)C(C)C1 (stereo unspecified) + CC(Nc1ncnc2nc[nH]c12)c1cc2cccc(Cl)c2c(=O)n1-c1ccccc1 | 996289-038-R-J1-PDC spheroid viability | < 5.00 |
| Cn1ncnc1[C@H]1c2n[nH]c(=O)c3cc(F)cc(c23)N[C@@H]1c1ccc(F)cc1 + Cc1nc(NC(=O)N2CCCC2C(N)=O)sc1-c1ccnc(C(C)(C)C(F)(F)F)c1 | 996289-038-R-J1-PDC spheroid viability | < 7.00 |
| Cn1ncnc1[C@H]1c2n[nH]c(=O)c3cc(F)cc(c23)N[C@@H]1c1ccc(F)cc1 + CC(Nc1ncnc2nc[nH]c12)c1cc2cccc(Cl)c2c(=O)n1-c1ccccc1 | 996289-038-R-J1-PDC spheroid viability | < 7.00 |

Origin of the recorded values: PubChem BioAssay AID1963965
